Molecular target: T1, neuropilin-1 (NRP1) on HEK293 cells overexpressing NRP1 (UniProt O14786 22-923, limits assumed)
T1 construct: whole, on cells
Test: flow cytometry, HEK293-NRP1 vs HEK293
RESULT_TYPE: 100 nM FACS (MFI Ratio)

>>> reading("NRP1-204 (antibody, IgG2, V domains shown) VH: EVQLLESGGGLVQPGGSLRLSCAASGFTFSAFAMSWVRQAPGKGLEWVSGTSGSGGSTYYADSVKGRFTISRDNSKNTLYLQMNSLRAEDTAVYYCARHRAYSYGLDYWGQGTLVTVSS VL: DIQMTQSPSSLSASVGDRVTITCRARQSISTYLNWYQQKPGKAPKLLIYSASTLESGVPSRFSGSGSGTDFTLTISSLQPEDFATYYCQQSYRTPWTFGGGTKVEIK")
9.2
>>> reading("NRP1-72 (VHH) VHH: EVQLVESGGGLVQPGGSLRLSCAASGRTFRRYAMGWFRQAPGKEREFVATISWSGALTHYADSVKGRFTISADNSKNTAYLQMNSLKPEDTAVYYCAAYQRGWGDWGQGTLVTVSS")
3
